B1: C2CD2L (parent)
chain: EPAGSLRELGVWRSLLRLRATRAG

Variants of: B1
assay.method.text: protein stability index of a GFP-peptide fusion (GPS, HEK-293T) (PSI 1-6); higher = more stable;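 also: lentivirally expressed fusions sorted by FACS into six bins by GFP to DsRed ratio, PSI derived from sequencing read proportions per bin multiplied by bin number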
measurement.setup: c terminus: a fixed tail appended
experimental.endpoint: protein stability index
Could you respond with only the numeric value?

entry_sequence="EPAGSLRELGVWRSLLRLRATRRG [A23R]" experimental_endpoint="protein stability index" val=3.33

Read the next record carefully.
Documented protein stability index of NPAGSLRELGVWRSLLRLRATRAG [E1N] : 2.09
